# study-target: CaRvs167-3
# experiment-notes: SPOT peptide array binding signal intensity (averaged, normalized) (arbitrary units (background-subtracted, floor 0; scale differs between SH3 domains)); higher = stronger binding of the SH3 domain to the peptide
Quick list: SPOT peptide array binding signal intensity per entry.

Example cases with answers are listed next.
- NPNRRAPRRPLSTQH: 66
- VRTRRRPPPPPIPST: 2
- SRSKPLPLTPNSKYN: 2.75

Data request: Find the recorded SPOT peptide array binding signal intensity belonging to "APERAVPILPPRNNV" and report it.
Data returned: ≤ 0

Data request: Field entry: "TSIEIPKRSPLRFTS"
Data returned: ≤ 0

Data request: Field entry: "RTRRRPPPPPIPSTQ"
Data returned: 22.5

Data request: Field entry: "RLPAPPPPPRRGPAP"
Data returned: 9.25
